Target: Peroxisome proliferator-activated receptor gamma/Nuclear receptor coactivator 1 (Homo sapiens, UniProt P37231)
Sequence (P37231 whole entry): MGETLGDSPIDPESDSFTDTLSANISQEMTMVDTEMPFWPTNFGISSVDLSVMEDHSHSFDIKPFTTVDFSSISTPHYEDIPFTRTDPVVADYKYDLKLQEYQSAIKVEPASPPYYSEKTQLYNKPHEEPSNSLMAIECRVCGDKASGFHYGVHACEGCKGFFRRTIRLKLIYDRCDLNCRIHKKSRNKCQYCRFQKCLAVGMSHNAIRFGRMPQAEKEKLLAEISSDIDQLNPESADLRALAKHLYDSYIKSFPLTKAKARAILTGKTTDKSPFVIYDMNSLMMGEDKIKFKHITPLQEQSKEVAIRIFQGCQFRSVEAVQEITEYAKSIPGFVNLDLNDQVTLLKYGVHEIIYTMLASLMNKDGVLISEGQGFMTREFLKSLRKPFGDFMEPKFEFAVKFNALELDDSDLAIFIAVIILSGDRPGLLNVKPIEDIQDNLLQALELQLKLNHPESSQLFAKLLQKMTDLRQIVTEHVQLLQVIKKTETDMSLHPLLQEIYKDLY
Sequence (Q15788 whole entry, further chain): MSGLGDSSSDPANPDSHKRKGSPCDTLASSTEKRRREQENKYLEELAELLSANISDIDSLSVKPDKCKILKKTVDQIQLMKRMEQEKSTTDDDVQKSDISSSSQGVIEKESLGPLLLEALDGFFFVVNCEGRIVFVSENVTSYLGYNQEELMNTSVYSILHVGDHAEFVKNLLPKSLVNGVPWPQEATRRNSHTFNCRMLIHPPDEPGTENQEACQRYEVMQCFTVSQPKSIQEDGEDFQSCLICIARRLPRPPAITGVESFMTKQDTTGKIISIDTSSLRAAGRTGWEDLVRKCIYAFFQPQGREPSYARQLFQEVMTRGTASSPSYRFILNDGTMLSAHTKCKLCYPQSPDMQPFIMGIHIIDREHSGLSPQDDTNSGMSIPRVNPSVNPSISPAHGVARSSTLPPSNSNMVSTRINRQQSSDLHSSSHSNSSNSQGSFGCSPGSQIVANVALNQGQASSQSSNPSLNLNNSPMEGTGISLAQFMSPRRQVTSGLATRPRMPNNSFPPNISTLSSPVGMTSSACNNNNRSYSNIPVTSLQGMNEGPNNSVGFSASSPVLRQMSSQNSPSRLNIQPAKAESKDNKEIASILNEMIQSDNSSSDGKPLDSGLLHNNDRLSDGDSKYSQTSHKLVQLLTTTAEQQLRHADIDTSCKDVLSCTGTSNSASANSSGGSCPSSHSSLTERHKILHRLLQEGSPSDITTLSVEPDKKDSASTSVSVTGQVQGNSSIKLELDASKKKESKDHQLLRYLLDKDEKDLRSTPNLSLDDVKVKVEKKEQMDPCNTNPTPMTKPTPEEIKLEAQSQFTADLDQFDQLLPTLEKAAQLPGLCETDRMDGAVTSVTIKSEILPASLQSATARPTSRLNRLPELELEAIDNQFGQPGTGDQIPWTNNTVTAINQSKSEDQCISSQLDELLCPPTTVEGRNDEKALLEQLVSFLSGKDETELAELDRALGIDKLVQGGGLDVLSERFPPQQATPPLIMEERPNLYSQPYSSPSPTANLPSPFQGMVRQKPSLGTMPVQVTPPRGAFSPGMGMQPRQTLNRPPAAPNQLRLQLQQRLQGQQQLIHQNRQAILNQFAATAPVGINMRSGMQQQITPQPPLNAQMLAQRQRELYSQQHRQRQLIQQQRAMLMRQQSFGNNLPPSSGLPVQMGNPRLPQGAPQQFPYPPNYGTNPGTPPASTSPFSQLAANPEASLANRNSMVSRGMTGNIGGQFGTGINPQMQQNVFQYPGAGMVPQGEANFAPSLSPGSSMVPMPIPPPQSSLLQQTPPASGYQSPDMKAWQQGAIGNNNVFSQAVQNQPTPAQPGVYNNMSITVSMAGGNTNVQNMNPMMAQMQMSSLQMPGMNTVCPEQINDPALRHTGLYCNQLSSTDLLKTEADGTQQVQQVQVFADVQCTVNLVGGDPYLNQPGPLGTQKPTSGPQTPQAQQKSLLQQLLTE
Assay: TR-FRET dose response biochemical High Throughput Screening assay for agonists of the steroid receptor coactivator 1 (SRC-1) recruitment by the peroxisome proliferator-activated receptor gamma (PPAR gamma): non-selective agonists. [Related pubchem assays (depositor defined):AID1300, AID1808, AID504735, AID631]
Type: protein assay
Active and inactive are the calls of the source. No stated cut-off is given here; in the data, active = EC50 of 10 µM or less and inactive = more.
value kind: EC50

COC(=O)Cc1c(C)c2c(O)cc(C)cc2oc1=O ... > 79.4 µM (inactive)
CCOC(=O)c1sc(NC(=O)c2ccco2)nc1-c1ccccc1 ... 24.3 µM (inactive)
Cn1c(=O)cc(SCC(=O)NCC2CCCO2)c2ccc(Cl)cc21 (stereo not given) ... > 79.4 µM (inactive)
Cc1cc2cc(CNC(=O)c3cc4ccccc4o3)ccc2n1C ... 10.6 µM (inactive)
Clc1cccc(-c2ccc(/C=N/c3ccc(N4CCOCC4)cc3)o2)c1 ... > 79.4 µM (inactive)
